molecular target: Glycogen synthase kinase-3 beta splice variant X1 (Bos taurus); test: Inhibition of bovine cerebral TPK1 assessed as reduction in P-GS1 phosphorylation using [32gammaP]ATP incubated for 2 hrs by liquid scintillation counting method
Measured parameter: IC50 (nM)
Give bare numbers, in nM.

[[record]]
test_smiles = "Cn1c(N2CCO[C@@H](c3ccc(N[C@@H]4CCOC4)cc3)C2)nc(-c2ccncc2F)cc1=O"
measured_parameter = "IC50"
endpoint_unit = "nM"
meas_value = 2.7

[[record]]
test_smiles = "Cn1c(N2CCO[C@@H](c3ccc(N4CCC(N5CCCC5)CC4)cc3)C2)nc(-c2ccncc2F)cc1=O"
measured_parameter = "IC50"
endpoint_unit = "nM"
meas_value = 1.7

[[record]]
test_smiles = "Cn1c(N2CCO[C@@H](c3c(F)cccc3Cl)C2)nc(-c2ccncc2F)cc1=O"
measured_parameter = "IC50"
endpoint_unit = "nM"
meas_value = 1.4

[[record]]
test_smiles = "CN(c1ccc([C@H]2CN(c3nc(-c4ccncc4F)cc(=O)n3C)CCO2)cc1)c1ccccn1"
measured_parameter = "IC50"
endpoint_unit = "nM"
meas_value = 5.4


Ask: Using the record for Cn1c(N2CCN[C@@H](c3ccc(N4CCCCC4)cc3)C2)nc(-c2ccncc2F)cc1=O , report its IC50.
Result: 3.7
